Listed next: entries and their corresponding Selectivity ratio.
- Species: Homo sapiens
- experiment: Selectivity ratio of pEC50 for human beta3 adrenergic receptor over beta-2 adrenergic receptor
Field format: numeric only.

[[record]]
smilescode = "C[C@H](CNc1cccc(-c2nc(C(=O)O)co2)c1)NC[C@H](O)c1cccc(Cl)c1"
metric = "Selectivity ratio"
numericreadout = 8


**Q:** Consider the compound C[C@H](CNc1cccc(-c2ocnc2C(=O)O)c1)NC[C@H](O)c1cccc(Cl)c1 . State its measured Selectivity ratio.
**A:** 79

**Q:** Provide only the value of recorded Selectivity ratio for C[C@H](CNc1ccc(-c2ocnc2C(=O)O)cc1)NC[C@H](O)c1cccc(Cl)c1
**A:** 320

**Q:** Look up and report measured Selectivity ratio for this entry: C[C@H](CNc1ccc(-c2nc(C(=O)O)cs2)cc1)NC[C@H](O)c1cccc(Cl)c1
**A:** 8

**Q:** Return reported Selectivity ratio. Input compound: C[C@H](CNc1cccc(-c2nc(C(=O)O)cs2)c1)NC[C@H](O)c1cccc(Cl)c1
**A:** 200

**Q:** Return reported Selectivity ratio. Input compound: C[C@H](CNc1ccc(-c2csc(C(=O)O)n2)cc1)NC[C@H](O)c1cccc(Cl)c1
**A:** 32

**Q:** Answer with the recorded Selectivity ratio of C[C@H](CNc1ccc(-c2nc(C(=O)O)co2)cc1)NC[C@H](O)c1cccc(Cl)c1 only.
**A:** 6

**Q:** Give Selectivity ratio for the following compound: C[C@H](CNc1cccc(-c2sccc2C(=O)O)c1)NC[C@H](O)c1cccc(Cl)c1
**A:** 13000

**Q:** Provide one value: measured Selectivity ratio of C[C@H](CNc1ccc(-c2occc2C(=O)O)cc1)NC[C@H](O)c1cccc(Cl)c1
**A:** 250

###

Each item that follows carries a reported pEC50.
- experimentalTarget: Beta-3 adrenergic receptor (Homo sapiens, UniProt P13945)
- Sequence (P13945 whole entry): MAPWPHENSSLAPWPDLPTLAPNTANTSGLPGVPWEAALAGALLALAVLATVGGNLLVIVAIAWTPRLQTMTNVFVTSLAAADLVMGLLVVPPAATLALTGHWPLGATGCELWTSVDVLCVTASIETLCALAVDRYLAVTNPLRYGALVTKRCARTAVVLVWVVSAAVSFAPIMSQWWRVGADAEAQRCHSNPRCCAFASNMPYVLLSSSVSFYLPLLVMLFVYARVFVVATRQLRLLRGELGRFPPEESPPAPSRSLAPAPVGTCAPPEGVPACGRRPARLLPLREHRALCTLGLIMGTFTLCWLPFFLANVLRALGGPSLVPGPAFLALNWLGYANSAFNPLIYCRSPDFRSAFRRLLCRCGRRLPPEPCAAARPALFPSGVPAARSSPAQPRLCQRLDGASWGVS
- experiment: Agonist activity at human beta-3 adrenergic receptor expressed in CHO cells assessed as cAMP accumulation
Units for pEC50: none; it is -log10 of a concentration expressed in mol/L.

Illustrative cases are given below, each with its answer.
[[record]]
smilescode = "C[C@H](CNc1cccc(-c2ocnc2C(=O)O)c1)NC[C@H](O)c1cccc(Cl)c1"
metric = "pEC50"
numericreadout = 8.40

[[record]]
smilescode = "C[C@H](CNc1cccc(-c2nc(C(=O)O)co2)c1)NC[C@H](O)c1cccc(Cl)c1"
metric = "pEC50"
numericreadout = 7.80

[[record]]
smilescode = "O=C(O)c1ccoc1-c1cccc(NCCNC[C@H](O)c2cccc(Cl)c2)c1"
metric = "pEC50"
numericreadout = 8.10

[[record]]
smilescode = "C[C@H](CNc1cccc(-c2nc(C(=O)O)cs2)c1)NC[C@H](O)c1cccc(Cl)c1"
metric = "pEC50"
numericreadout = 9.10


Moving on to another compound below.
**Q:** Answer with the recorded pEC50 for the compound listed here: C[C@H](CNc1ccc(-c2csc(C(=O)O)n2)cc1)NC[C@H](O)c1cccc(Cl)c1
**A:** 8.80

###

Listing of recorded half-life by entry.
- experiment: Half life in dog at 0.2 mg/kg, iv
- Format: ADME, organism-based, Canis lupus familiaris
- Parameters: dose 0.2 mg/kg, route intravenous
- cond: in vivo

Field: example entries. Status: answers known.
[[record]]
smilescode = "C[C@H](CNc1cccc(-c2sccc2C(=O)O)c1)NC[C@H](O)c1cccc(Cl)c1"
result = "≤ 1 h"

[[record]]
smilescode = "C[C@H](CNc1cccc(-c2occc2C(=O)O)c1)NC[C@H](O)c1cccc(Cl)c1"
result = "≤ 1 h"

[[record]]
smilescode = "C[C@H](CNc1cccc(-c2ocnc2C(=O)O)c1)NC[C@H](O)c1cccc(Cl)c1"
result = "≤ 1 h"

[[record]]
smilescode = "O=C(O)c1ccoc1-c1cccc(NCCNC[C@H](O)c2cccc(Cl)c2)c1"
result = "6.1 h"


**Q:** Using known records, supply half-life for C[C@H](CNc1ccc(-c2occc2C(=O)O)cc1)NC[C@H](O)c1cccc(Cl)c1
**A:** ≤ 1 h

**Q:** For C[C@H](CNc1ccc(-c2ocnc2C(=O)O)cc1)NC[C@H](O)c1cccc(Cl)c1 , write its half-life.
**A:** ≤ 1 h

**Q:** Supply half-life value. Item: O=C(O)c1ccsc1-c1cccc(NCCNC[C@H](O)c2cccc(Cl)c2)c1
**A:** 1.6 h

**Q:** Using the record for C[C@H](CNc1cccc(-c2nc(C(=O)O)cs2)c1)NC[C@H](O)c1cccc(Cl)c1 , state its measured half-life.
**A:** ≤ 1 h

###

- Species on record: Homo sapiens
- experiment: Selectivity ratio of pEC50 for human beta-3 adrenergic receptor over beta-1 adrenergic receptor
Selectivity ratio for assorted molecules
Reply with just the number.

[[record]]
smilescode = "C[C@H](CNc1ccc(-c2sccc2C(=O)O)cc1)NC[C@H](O)c1cccc(Cl)c1"
numericreadout = 250

[[record]]
smilescode = "C[C@H](CNc1ccc(CC(=O)O)cc1)NC[C@H](O)c1cccc(Cl)c1"
numericreadout = 5

[[record]]
smilescode = "C[C@H](CNc1cccc(-c2csc(C(=O)O)n2)c1)NC[C@H](O)c1cccc(Cl)c1"
numericreadout = 50

[[record]]
smilescode = "O=C(O)c1ccoc1-c1cccc(NCCNC[C@H](O)c2cccc(Cl)c2)c1"
numericreadout = 630

[[record]]
smilescode = "C[C@H](CNc1cccc(-c2nc(C(=O)O)co2)c1)NC[C@H](O)c1cccc(Cl)c1"
numericreadout = 10


**Q:** Tell me measured Selectivity ratio for C[C@H](CNc1cccc(-c2sccc2C(=O)O)c1)NC[C@H](O)c1cccc(Cl)c1 please.
**A:** 20000

**Q:** Quickly give me recorded Selectivity ratio for C[C@H](CNc1ccc(CCC(=O)O)cc1)NC[C@H](O)c1cccc(Cl)c1
**A:** 10

###

- experiment: Plasma clearance in dog at 0.2 mg/kg, iv
- Format: ADME, organism-based, Canis lupus familiaris
- Design: dose 0.2 mg/kg, route intravenous
Below, each entry is listed alongside its reported clearance.
API: value field is a number in mL/min/kg; no unit string.

[[record]]
smilescode = "C[C@H](CNc1cccc(-c2sccc2C(=O)O)c1)NC[C@H](O)c1cccc(Cl)c1"
metric = "clearance"
numericreadout = 5.3

[[record]]
smilescode = "C[C@H](CNc1cccc(-c2ocnc2C(=O)O)c1)NC[C@H](O)c1cccc(Cl)c1"
metric = "clearance"
numericreadout = 5.3


**Q:** For the compound O=C(O)c1ccsc1-c1cccc(NCCNC[C@H](O)c2cccc(Cl)c2)c1 , report clearance.
**A:** 1.5

**Q:** Give clearance for O=C(O)c1ccoc1-c1cccc(NCCNC[C@H](O)c2cccc(Cl)c2)c1
**A:** 0.65

**Q:** Using known records, supply clearance for C[C@H](CNc1cccc(-c2occc2C(=O)O)c1)NC[C@H](O)c1cccc(Cl)c1
**A:** 5.3

**Q:** Please report clearance for the following compound: C[C@H](CNc1ccc(-c2ocnc2C(=O)O)cc1)NC[C@H](O)c1cccc(Cl)c1
**A:** 5.3

**Q:** Answer with reported clearance of C[C@H](CNc1ccc(-c2occc2C(=O)O)cc1)NC[C@H](O)c1cccc(Cl)c1
**A:** 5.3

**Q:** Please give the documented clearance of C[C@H](CNc1cccc(-c2nc(C(=O)O)cs2)c1)NC[C@H](O)c1cccc(Cl)c1
**A:** 5.3

###

- experimentalTarget: Beta-2 adrenergic receptor (Homo sapiens)
- experiment: Agonist activity at human beta-2 adrenergic receptor expressed in CHO cells assessed as cAMP accumulation
- Sequence (P07550 whole entry): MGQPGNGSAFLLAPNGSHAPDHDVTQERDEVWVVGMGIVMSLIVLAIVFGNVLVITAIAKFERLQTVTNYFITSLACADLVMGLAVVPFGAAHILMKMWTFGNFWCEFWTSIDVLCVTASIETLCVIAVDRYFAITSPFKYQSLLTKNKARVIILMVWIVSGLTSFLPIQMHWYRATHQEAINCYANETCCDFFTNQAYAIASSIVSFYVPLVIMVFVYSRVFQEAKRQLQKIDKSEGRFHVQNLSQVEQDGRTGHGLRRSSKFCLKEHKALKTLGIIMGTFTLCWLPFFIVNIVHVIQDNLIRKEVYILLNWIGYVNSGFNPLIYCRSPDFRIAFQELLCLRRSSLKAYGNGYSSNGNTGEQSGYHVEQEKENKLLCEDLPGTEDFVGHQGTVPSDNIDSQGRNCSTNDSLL
Binarize EC50 at 300 nM; below is class 1, at or above is class 0.

Example entries begin here.
[[record]]
smilescode = "C[C@H](CNc1ccc(-c2occc2C(=O)O)cc1)NC[C@H](O)c1cccc(Cl)c1"
labelvalue = "class 1"

[[record]]
smilescode = "C[C@H](CNc1cccc(-c2nc(C(=O)O)cs2)c1)NC[C@H](O)c1cccc(Cl)c1"
labelvalue = "class 1"

[[record]]
smilescode = "O=C(O)c1ccsc1-c1cccc(NCCNC[C@H](O)c2cccc(Cl)c2)c1"
labelvalue = "class 0"

[[record]]
smilescode = "C[C@H](CNc1cccc(-c2nc(C(=O)O)co2)c1)NC[C@H](O)c1cccc(Cl)c1"
labelvalue = "class 1"

[[record]]
smilescode = "C[C@H](CNc1cccc(-c2ocnc2C(=O)O)c1)NC[C@H](O)c1cccc(Cl)c1"
labelvalue = "class 0"


**Q:** Lab note: EC50 threshold 300 nM. Does this compound come in strictly under it? O=C(O)c1ccoc1-c1cccc(NCCNC[C@H](O)c2cccc(Cl)c2)c1
**A:** class 0

**Q:** Strictly below 300 nM: is that where EC50 of C[C@H](CNc1ccc(-c2nc(C(=O)O)co2)cc1)NC[C@H](O)c1cccc(Cl)c1 sits?
**A:** class 1

###

- experimentalTarget: Beta-2 adrenergic receptor (Homo sapiens, UniProt P07550)
- experiment: Agonist activity at human beta-2 adrenergic receptor expressed in CHO cells assessed as cAMP accumulation relative to R-(-)-isoproterenol
- Format: functional, cell-based
- Sequence (P07550 whole entry, looked up): as the sequence (P07550 whole entry) above
metric: Emax (%)
Give the value, in units of %, as a plain number.

**Q:** Please report the measured Emax for C[C@H](CNc1cccc(-c2csc(C(=O)O)n2)c1)NC[C@H](O)c1cccc(Cl)c1
**A:** 76

**Q:** Fill in reported Emax for this entry: C[C@H](CNc1cccc(-c2ocnc2C(=O)O)c1)NC[C@H](O)c1cccc(Cl)c1
**A:** 49

**Q:** Return the recorded Emax value; entry: C[C@H](CNc1ccc(-c2nc(C(=O)O)co2)cc1)NC[C@H](O)c1cccc(Cl)c1
**A:** 53

**Q:** Check the records and state Emax for C[C@H](CNc1cccc(-c2nc(C(=O)O)cs2)c1)NC[C@H](O)c1cccc(Cl)c1
**A:** 48

**Q:** Respond only with Emax recorded for C[C@H](CNc1cccc(-c2occc2C(=O)O)c1)NC[C@H](O)c1cccc(Cl)c1
**A:** 38

Origin of values: ChEMBL document CHEMBL1140647
